These measurements were taken from patent US20160257732A1.

# tested_on: HA of ca A/Beijing/262/95 (H1N1) (influenza A virus)
# measurement_protocol: cell-based or functional assay
Field: Neutralization IC50, H1-BJ95. Provide a value for each of the binders that follow.
Give bare numbers, in µg/mL.

{"binder": "Antibody 14 (antibody, V domains shown) VH: QVQLQQSGPGLVKPSQTLSLTCAISGDSVSSNNAVWNWIRQSPSRGLEWLGRTYYRSKWYNDYAESVKSRITINPDTSKNQFSLQLNSVTPEDTAVYYCARSGHITVFGVNVDAFDMWGQGTTVTVSS VL: DIQMTQSPSSLSASVGDRVTITCRTSQSLSSYTHWYQQKPGKAPKLLIYAASSRLSGVPSRFSGSGSGTDFTLTISSLQPEDFATYYCQQSRTFGQGTKVEIK", "measured_result": 2.09}
{"binder": "Antibody 13 (antibody, V domains shown) VH: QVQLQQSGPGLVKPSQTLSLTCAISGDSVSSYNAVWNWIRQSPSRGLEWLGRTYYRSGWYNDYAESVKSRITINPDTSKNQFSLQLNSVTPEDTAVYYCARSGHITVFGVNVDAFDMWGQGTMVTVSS VL: DIQMTQSPSSLSASVGDRVTITCRTSQSLSSYDHWYQQKPGKAPKLLIYAASSRLSGVPSRFSGSGSGTDFTLTISSLQPEDFATYYCQQSRTFGQGTKVEIK", "measured_result": 1.86}

// input: 2 binders below; output: Neutralization IC50, H1-BJ95 for each
1. Antibody 11 (antibody, V domains shown) VH: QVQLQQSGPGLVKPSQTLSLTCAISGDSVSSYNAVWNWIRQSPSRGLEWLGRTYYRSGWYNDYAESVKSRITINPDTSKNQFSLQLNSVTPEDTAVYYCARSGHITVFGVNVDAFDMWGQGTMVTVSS VL: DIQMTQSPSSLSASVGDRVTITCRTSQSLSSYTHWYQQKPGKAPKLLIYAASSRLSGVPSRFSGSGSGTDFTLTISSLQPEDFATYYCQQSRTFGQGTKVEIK
2. Antibody 12 (antibody, V domains shown) VH: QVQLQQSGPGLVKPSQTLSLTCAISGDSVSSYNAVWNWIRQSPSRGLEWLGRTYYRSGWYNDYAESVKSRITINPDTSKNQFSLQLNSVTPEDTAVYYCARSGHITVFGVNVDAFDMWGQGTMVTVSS VL: DIQMTQSPSSLSASVGDRVTITCRTSQSLSSYTHWYQQKPGKAPKLLIYAASSRGSGVPSRFSGSGSGTDFTLTISSLQPEDFATYYCQQSRTFGQGTKVEIK

1.01
1.31
